FYI, the data here is from patent US9206432B2.

Test system: lacZ under control of the tetA promoter (PtetA) in E. coli KM3
Format: cell-based
Settings: Table 6, reverse repressor hits; metsulfuron, same plate assay format (20 ppm)
reported-endpoint: relative β-galactosidase activity, inducer Ms

| molecule | reading |
| --- | --- |
| L1-25: library L1 hit with reverse repressor activity (SEQ ID NO: 1206-1213) (protein, rSuR L1-25) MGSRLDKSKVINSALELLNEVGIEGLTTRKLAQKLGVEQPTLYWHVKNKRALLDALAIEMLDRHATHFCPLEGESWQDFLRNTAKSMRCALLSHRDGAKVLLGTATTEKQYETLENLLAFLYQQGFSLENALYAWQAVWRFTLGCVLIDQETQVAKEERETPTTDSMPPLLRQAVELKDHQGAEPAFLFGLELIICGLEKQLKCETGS | 0.32 |
| L1-39: library L1 hit with reverse repressor activity (SEQ ID NO: 1206-1213) (protein, rSuR L1-39) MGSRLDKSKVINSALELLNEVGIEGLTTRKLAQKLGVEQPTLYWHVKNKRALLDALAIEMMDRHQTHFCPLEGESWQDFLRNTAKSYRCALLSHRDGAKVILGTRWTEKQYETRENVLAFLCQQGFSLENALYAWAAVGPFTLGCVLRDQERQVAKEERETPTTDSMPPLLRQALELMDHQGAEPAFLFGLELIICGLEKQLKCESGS | 0.75 |
| L1-18: library L1 hit with reverse repressor activity (SEQ ID NO: 1206-1213) (protein, rSuR L1-18) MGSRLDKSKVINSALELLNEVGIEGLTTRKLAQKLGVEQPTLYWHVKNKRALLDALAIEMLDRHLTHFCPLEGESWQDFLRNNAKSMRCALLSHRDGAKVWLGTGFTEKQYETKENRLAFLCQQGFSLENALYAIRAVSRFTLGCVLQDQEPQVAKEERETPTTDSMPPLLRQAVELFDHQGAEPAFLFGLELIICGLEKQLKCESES | 0.79 |
| L1-41: library L1 hit with reverse repressor activity (SEQ ID NO: 1206-1213) (protein, rSuR L1-41) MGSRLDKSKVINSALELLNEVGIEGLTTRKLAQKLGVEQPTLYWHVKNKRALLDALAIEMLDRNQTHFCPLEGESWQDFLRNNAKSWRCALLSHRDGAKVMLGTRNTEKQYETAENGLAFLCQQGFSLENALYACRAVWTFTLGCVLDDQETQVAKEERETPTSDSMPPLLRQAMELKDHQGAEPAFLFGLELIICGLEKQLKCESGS | 0.56 |
